Test System: T1, receptor-binding domain (RBD) of the wild-type SARS-CoV-2 spike protein (SARS-CoV-2, UniProt P0DTC2 333-527)
T1 construct: also called SARS-CoV-2 RBD
Experimental Protocol: ELISA
Experimental Conditions: both partners purified
Quantity Name: EC50 (nM)
Note: unit nM is implicit; provide only the numeric part.

Requested read-out: EC50. Entry: mRBD21 (antibody, V domains shown) VH: QIQLVQSGPELKKPGETVKISCKASGYTFTKYPMHWVKQAPGKGFKWMGMIYTDTGEPTYAEEFKGRCAFSLETSASTAYLQINNLKNEDTATYFCVRWGGSYALDYWGQGTSVTVSS VL: DIVLTQSPASLAVSLGQRATISCRASESVDSYGNSFMHWYQQKPGQPPKLLIYRASNLESGIPARFSGSGSRTDFTLTINPVEADDVATYYCQQSNEDPLTFGAGTKLELK
0.18

Likewise for mRBD16 (antibody, V domains shown) VH: QIQLVQSGPELKKPGETVKISCKASGYTLTEYPMHWVKQAPGKGFKWMGMIYTDTGEPTYAEEFKGRFAFSLETSASTAYLQINNLKNEDTATYFCVRAGPSFAMDYWGQGTSVTVSS VL: NIVLTQSPASLAVSLGQRATISCRASESVDSYGNSFMHWYQQKPGQPPKLLIYLASNLESGVPARFSGSGSRTDFTLTIDPVEADDAATYYCQQNNEDPYTFGGGTKLEIK ?
0.0895

Also need mRBD22 (antibody, V domains shown) VH: QIQLVQSGPELKKPGETVKISCKASGYTFTEYPMHWVKQAPGKGFKWMGMIYTDTGEPTYAEEFKGRFAFSLETSASTAYLQINNLKNEDTATYFCVRGGYYYFDYWGQGTTLTVSS VL: NIVLTQSPASLAVSLGQRATISCRASESVDSYGNSFMHWYQQKPGQPPKLLIYLASNLESGVPARFSGSGSRTDFTLTIDPVEADDAATYYCQQNNEDPWTFGGGTKLEIK , thanks.
0.218
